- Target or system: Albumin (Homo sapiens, UniProt P02768)
- Sequence (P02768 whole entry): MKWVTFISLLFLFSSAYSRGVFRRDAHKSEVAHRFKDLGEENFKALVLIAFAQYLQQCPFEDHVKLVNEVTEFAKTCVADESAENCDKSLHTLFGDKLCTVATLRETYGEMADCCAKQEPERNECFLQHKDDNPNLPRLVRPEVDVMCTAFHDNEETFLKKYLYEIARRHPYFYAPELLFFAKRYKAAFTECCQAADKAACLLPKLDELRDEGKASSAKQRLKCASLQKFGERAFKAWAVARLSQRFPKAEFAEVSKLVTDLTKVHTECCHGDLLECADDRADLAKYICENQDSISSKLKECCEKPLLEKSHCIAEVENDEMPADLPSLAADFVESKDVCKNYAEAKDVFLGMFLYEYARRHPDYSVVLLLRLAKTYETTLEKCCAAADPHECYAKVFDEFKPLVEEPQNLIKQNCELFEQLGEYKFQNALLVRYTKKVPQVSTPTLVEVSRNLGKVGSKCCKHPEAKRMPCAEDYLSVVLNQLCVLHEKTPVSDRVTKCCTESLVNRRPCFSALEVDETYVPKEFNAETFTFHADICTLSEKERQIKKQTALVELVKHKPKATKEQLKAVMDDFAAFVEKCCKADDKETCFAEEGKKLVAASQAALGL
- Protocol description: Binding affinity to human serum albumin assessed as dissociation constant and measured after 5 mins by MST assay
pKd: −log10 of the molar value.
Item-by-item account of pKd
Assay endpoint: pKd

> print(dat)
                           substance.smiles                        target.or.system  observed.value
1  CC(=O)N[C@H](CCCCNC(=O)CCCc1ccc(I)cc1)C(=O)O  Albumin (Homo sapiens, UniProt P02768)            5.10
2  [N-]=[N+]=Nc1ccc(C(=O)N[C@H](CCCCNC(=O)CCCc2ccc(I)cc2)C(=O)O)cc1  Albumin (Homo sapiens, UniProt P02768)            5.59

====

Entries and their measured logD follow.
- Protocol description: Lipophilicity, logD of compound at pH 7.4 under shaking condition by HPLC analysis
- Assay type: physicochemical
- Condition description: buffer
Assay endpoint: logD

> print(dat)
                           substance.smiles  observed.value
1  [N-]=[N+]=Nc1ccc(C(=O)N[C@@H](CCCCNC(=O)CCCc2ccc(I)cc2)C(N)=O)cc1            3.13
2  [N-]=[N+]=Nc1ccc(C(=O)N[C@@H](CCCCNC(=O)CCCc2ccc(I)cc2)C(=O)O)cc1            1.75

====

- Target or system: Albumin (Homo sapiens, UniProt P02768)
- Protocol description: Binding affinity to human serum albumin assessed as dissociation constant using N-alpha-(6-FAM)-N-epsilon-(4-Iodophenylbutanoyl)-D-lysine as substrate and measured after 5 mins by fluorescence based competition assay
Assay endpoint: Kd (nM)

> print(dat)
                           substance.smiles  assay.endpoint  display.unit  observed.value
1  O=C(CCCc1ccc(I)cc1)NCCCC[C@@H](NC(=O)c1ccc(C(=O)O)c(-c2c3ccc(=O)cc-3oc3cc(O)ccc23)c1)C(=O)O              Kd            nM             230

====

Listed here are compounds together with their documented Kd.
- Target or system: Albumin (Homo sapiens)
- Protocol description: Binding affinity to human serum albumin assessed as dissociation constant by isothermal titration calorimetry
Assay endpoint: Kd (µM)

> print(dat)
                           substance.smiles        target.or.system  observed.value
1  CC(=O)N[C@@H](CCCCNC(=O)CCCc1ccc(I)cc1)C(=O)O  Albumin (Homo sapiens)               9
2  CC(=O)N[C@H](CCCCNC(=O)CCCc1ccc(I)cc1)C(=O)O  Albumin (Homo sapiens)             3.2

====

- Target or system: Albumin (Homo sapiens, UniProt P02768)
- Protocol description: Binding affinity to human serum albumin assessed as dissociation constant and measured after 5 mins by fluorescence based competition assay
Recorded measurements of Kd, one per entry
Assay endpoint: Kd (µM)

> print(dat)
                                    molecule                        target.or.system  assay.endpoint  observed.value
 1  Cc1ccc(CCCC(=O)NCCCC[C@H](NC(=O)c2ccc(N=[N+]=[N-])cc2)C(=O)O)cc1  Albumin (Homo sapiens, UniProt P02768)              Kd               3
 2  [N-]=[N+]=Nc1ccc(C(=O)N[C@@H](CCCCNC(=O)CCCc2ccc(F)cc2)C(=O)O)cc1  Albumin (Homo sapiens, UniProt P02768)              Kd              26
 3  C#Cc1ccc(C(=O)N[C@@H](CCCCNC(=O)CCCc2ccc(I)cc2)C(=O)O)cc1  Albumin (Homo sapiens, UniProt P02768)              Kd            0.34
 4  O=C(O)CN1CCN(CC(=O)O)CCN(C(CCC(=O)N[C@@H](CCCCNC(=O)CCCc2ccc(I)cc2)C(=O)O)C(=O)O)CC1 (stereo partly specified)  Albumin (Homo sapiens, UniProt P02768)              Kd               8
 5  [N-]=[N+]=Nc1ccc(C(=O)N[C@@H](CCCCNC(=O)CCCc2ccc(C(F)(F)F)cc2)C(=O)O)cc1  Albumin (Homo sapiens, UniProt P02768)              Kd             4.1
 6  [N-]=[N+]=Nc1ccc(C(=O)N[C@H](CCCCNC(=O)CCCc2ccc(I)cc2)C(=O)O)cc1  Albumin (Homo sapiens, UniProt P02768)              Kd             1.2
 7  CC(C)Cc1ccc(C(C)C(=O)NCCCC[C@H](NC(=O)c2ccc(N=[N+]=[N-])cc2)C(=O)O)cc1 (stereo partly specified)  Albumin (Homo sapiens, UniProt P02768)              Kd               4
 8  [N-]=[N+]=Nc1ccc(C(=O)N[C@@H](CCCCNC(=O)CCCc2ccc(Br)cc2)C(=O)O)cc1  Albumin (Homo sapiens, UniProt P02768)              Kd               2
 9  CC(=O)N[C@@H](CCCCNC(=O)CCCc1ccc(I)cc1)C(N)=O  Albumin (Homo sapiens, UniProt P02768)              Kd              70
10  O=C(CCCc1ccc(I)cc1)NCCCC[C@H](C(=O)O)n1cc(-c2ccccc2)nn1  Albumin (Homo sapiens, UniProt P02768)              Kd               4
11  CC(=O)N[C@@H](CCCCNC(=O)CCCc1ccc(I)cc1)C(=O)O  Albumin (Homo sapiens, UniProt P02768)              Kd             3.2
12  NC(=O)[C@H](CC(=O)O)NC(=O)CCCc1ccc(I)cc1  Albumin (Homo sapiens, UniProt P02768)              Kd             100
13  C#CCCC(=O)N[C@H](CCCCNC(=O)CCCc1ccc(I)cc1)C(=O)O  Albumin (Homo sapiens, UniProt P02768)              Kd             7.3
14  COC(=O)[C@H](CCCCNC(=O)CCCc1ccc(I)cc1)NC(C)=O  Albumin (Homo sapiens, UniProt P02768)              Kd             110
15  [N-]=[N+]=NCCCCC(=O)N[C@@H](CCCCNC(=O)CCCc1ccc(I)cc1)C(=O)O  Albumin (Homo sapiens, UniProt P02768)              Kd               6
16  [N-]=[N+]=NCCCCC(=O)N[C@H](CCCCNC(=O)CCCc1ccc(I)cc1)C(=O)O  Albumin (Homo sapiens, UniProt P02768)              Kd               8
17  [N-]=[N+]=Nc1ccc(C(=O)N[C@@H](CCCCNC(=O)CCCc2ccccc2)C(=O)O)cc1  Albumin (Homo sapiens, UniProt P02768)              Kd              36
18  [N-]=[N+]=Nc1ccc(C(=O)N[C@@H](CCCCNC(=O)CCCc2ccc(I)cc2)C(=O)O)cc1  Albumin (Homo sapiens, UniProt P02768)              Kd            0.36
19  [N-]=[N+]=Nc1ccc(C(=O)N[C@@H](CCCCNC(=O)CCCc2ccc(Cl)cc2)C(=O)O)cc1  Albumin (Homo sapiens, UniProt P02768)              Kd             3.5
20  NC(=O)[C@H](CCC(=O)O)NC(=O)CCCc1ccc(I)cc1  Albumin (Homo sapiens, UniProt P02768)              Kd              80
21  CC(=O)N[C@H](CCCCNC(=O)CCCc1ccc(I)cc1)C(=O)O  Albumin (Homo sapiens, UniProt P02768)              Kd               7

Origin of values: ChEMBL document CHEMBL5042503
